FYI, the data here is from patent US7560229B2.

# tgt: M. tuberculosis MshC (Cys:GlcN-Ins ligase) (Mycobacterium tuberculosis, UniProt P9WJM9)
# Sequence (P9WJM9 whole entry): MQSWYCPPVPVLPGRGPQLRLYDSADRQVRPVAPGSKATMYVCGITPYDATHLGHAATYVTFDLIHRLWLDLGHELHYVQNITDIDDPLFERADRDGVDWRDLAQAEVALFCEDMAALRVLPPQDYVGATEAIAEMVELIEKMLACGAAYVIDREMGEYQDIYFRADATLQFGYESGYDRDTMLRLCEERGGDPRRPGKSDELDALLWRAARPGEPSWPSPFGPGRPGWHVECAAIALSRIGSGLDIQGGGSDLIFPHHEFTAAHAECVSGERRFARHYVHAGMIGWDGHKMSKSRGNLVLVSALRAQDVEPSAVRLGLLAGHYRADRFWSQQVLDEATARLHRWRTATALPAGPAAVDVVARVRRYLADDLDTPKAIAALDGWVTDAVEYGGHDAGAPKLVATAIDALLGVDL
Marks after values point to notes of the source that are not given here.
quantityName: relative spec. act.

{"compound": "N[C@H](CS)C(=O)O", "relative spec. act.": "≦0.7"}
{"compound": "NCCS", "relative spec. act.": "≦0.16"}
{"compound": "CC(=O)N[C@@H](CS)C(=O)O", "relative spec. act.": "≦0.24"}
{"compound": "N[C@@H](CCS)C(=O)O", "relative spec. act.": "≦0.2"}

Please examine the following record next.
Entry under test: N[C@H]1C(O)O[C@H](CO)[C@@H](O)[C@@H]1O (stereo partly drawn) . Its relative spec. act. was 1.2
